Reported melting point values for the following compounds.
readout-type: melting point

> print(dat)
                                   compound       reported
1  CCCCC1=NC(NC(=O)C2(NC(=O)CCC(C)C)CCCC2)C(=O)N(Cc2ccccn2)c2ccccc21 (stereo not drawn) [Example 63]    63 to 67 °C
2  CC(C)CCC(=O)NC1(C(=O)NC2N=C(C(C)(C)C)c3ccccc3N(C)C2=O)CCCC1 (stereo not drawn) [Example 61]  175 to 178 °C
3  CN1C(=O)[C@@H](NC(=O)C2(NC(=O)CCC3CCCC3)CCCCC2)N=C(c2ccccc2)c2ccccc21   88 to 103 °C
